Reference source: patent US11912703B2

- subject_of_test: human TLR7 (Homo sapiens (Human))
- Sequence (Q9NYK1 27-1049): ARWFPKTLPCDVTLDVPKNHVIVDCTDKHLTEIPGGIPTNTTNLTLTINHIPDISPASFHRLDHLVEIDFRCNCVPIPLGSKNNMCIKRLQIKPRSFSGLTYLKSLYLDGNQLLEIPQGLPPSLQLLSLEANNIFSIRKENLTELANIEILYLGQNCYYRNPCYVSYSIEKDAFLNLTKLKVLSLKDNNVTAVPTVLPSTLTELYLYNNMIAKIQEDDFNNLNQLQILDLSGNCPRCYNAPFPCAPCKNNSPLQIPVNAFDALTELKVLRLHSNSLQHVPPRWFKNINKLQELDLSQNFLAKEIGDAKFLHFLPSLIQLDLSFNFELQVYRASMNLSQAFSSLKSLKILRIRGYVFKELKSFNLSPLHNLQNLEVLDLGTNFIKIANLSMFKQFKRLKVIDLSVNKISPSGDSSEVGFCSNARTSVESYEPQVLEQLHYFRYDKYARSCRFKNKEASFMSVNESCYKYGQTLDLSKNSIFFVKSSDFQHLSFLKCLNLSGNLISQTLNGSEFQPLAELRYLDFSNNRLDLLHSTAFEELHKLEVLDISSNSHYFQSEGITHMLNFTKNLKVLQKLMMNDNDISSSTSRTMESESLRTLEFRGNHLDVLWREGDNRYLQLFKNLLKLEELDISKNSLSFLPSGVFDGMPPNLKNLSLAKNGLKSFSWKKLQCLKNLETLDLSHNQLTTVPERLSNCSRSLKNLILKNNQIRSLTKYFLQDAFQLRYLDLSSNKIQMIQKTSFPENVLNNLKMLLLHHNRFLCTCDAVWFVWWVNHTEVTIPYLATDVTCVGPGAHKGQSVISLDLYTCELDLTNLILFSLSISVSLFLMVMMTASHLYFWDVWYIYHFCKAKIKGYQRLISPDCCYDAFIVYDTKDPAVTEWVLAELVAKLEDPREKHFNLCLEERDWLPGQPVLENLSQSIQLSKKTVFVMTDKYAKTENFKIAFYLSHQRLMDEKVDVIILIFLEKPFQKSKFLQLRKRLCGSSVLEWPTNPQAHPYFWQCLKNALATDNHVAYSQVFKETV
- method_summary: TLR7 inhibition reporter assay (HEK-Blue SEAP)
- Format: cell-based
- test_settings: HEK-Blue cells overexpressing human TLR7, gardiquimod 7.5 μM stimulation
assay_metric: pIC50
A value of pIC50 is the negative decimal logarithm of a concentration given in moles per litre.

{"compound": "Cc1c(-c2[nH]c3cnc(C4CCC(NC(C)C)CC4)cc3c2C(C)C)cn2ncnc2c1C (centres unmarked) [Example 326]", "subject_of_test": "human TLR7 (Homo sapiens (Human))", "pIC50": 7.85}
{"compound": "COc1cc(-c2[nH]c3cnc(C4CCN(C5COC5)CC4)c(C)c3c2C(C)C)cn2ncnc12", "subject_of_test": "human TLR7 (Homo sapiens (Human))", "pIC50": 8.33}
{"compound": "Cc1cc(-c2[nH]c3cnc(N4CCC(N(C)C)CC4)c(F)c3c2C(C)C)cn2ncnc12", "subject_of_test": "human TLR7 (Homo sapiens (Human))", "pIC50": 8.85}
{"compound": "Cc1c(N2CCC(N3CCOCC3)CC2)ncc2[nH]c(-c3cc(C)c4ncnn4c3)c(C(C)C)c12", "subject_of_test": "human TLR7 (Homo sapiens (Human))", "pIC50": 8.96}

With those in mind, consider the next compound.
Input line: Looking for the measured pIC50 of Cc1c(-c2[nH]c3cnc(N4CCC(N(C)C(C)C)CC4)c(F)c3c2C(C)C)cn2ncnc2c1C , can you help?
Output line: 9.01
